Examples of compounds with documented log10 of GI50 at 72 h follow.
test: Cytotoxicity against human HL60 cells after 72 hrs; assay type: cell-based, HL-60
PROPERTY_LABEL: log10 of GI50 at 72 h (log10 of the value in µM)

{"COMPOUND": "COc1ccc(CCN(CC(N)=O)C(=O)CNCCC(c2ccccc2)c2ccccc2)cc1", "log10 of GI50 at 72 h": 1.49}
{"COMPOUND": "COc1ccc(CCNCC(=O)N(CCC(c2ccccc2)c2ccccc2)CC(N)=O)cc1", "log10 of GI50 at 72 h": 1.46}
{"COMPOUND": "NC(=O)CN(CCC(c1ccccc1)c1ccccc1)C(=O)CNCCC(c1ccccc1)c1ccccc1", "log10 of GI50 at 72 h": 1.12}
{"COMPOUND": "COc1ccc(CCN(CC(=O)NCCC(c2ccccc2)c2ccccc2)C(=O)CNCCC(c2ccccc2)c2ccccc2)cc1", "log10 of GI50 at 72 h": 0.47}
{"COMPOUND": "O=C(CNCCC(c1ccccc1)c1ccccc1)NCCC(c1ccccc1)c1ccccc1", "log10 of GI50 at 72 h": 1.10}
{"COMPOUND": "COc1ccc(CCNCC(=O)NCCC(c2ccccc2)c2ccccc2)cc1", "log10 of GI50 at 72 h": 1.03}
{"COMPOUND": "NC(=O)CN(CCC(c1ccccc1)c1ccccc1)C(=O)CN(CCC(c1ccccc1)c1ccccc1)C(=O)CNCC1CCCO1 (centres undefined)", "log10 of GI50 at 72 h": 0.55}
{"COMPOUND": "COc1ccc(CCN(CC(=O)N(CCC(c2ccccc2)c2ccccc2)CC(N)=O)C(=O)CNCCC(c2ccccc2)c2ccccc2)cc1", "log10 of GI50 at 72 h": 1.34}
{"COMPOUND": "O=C(CN(CCC(c1ccccc1)c1ccccc1)C(=O)CNCC1CCCO1)NCCC(c1ccccc1)c1ccccc1 (centres undefined)", "log10 of GI50 at 72 h": 1.36}

* * *

assay: Cytotoxicity against human MDA-MB-231 cells after 72 hrs; type: cell-based

{"COMPOUND": "NC(=O)CN(CCC(c1ccccc1)c1ccccc1)C(=O)CNCCC(c1ccccc1)c1ccccc1", "GI50 at 72 h / µM": 3.08}
{"COMPOUND": "COc1ccc(CCN(CC(N)=O)C(=O)CNCCC(c2ccccc2)c2ccccc2)cc1", "GI50 at 72 h / µM": 19.1}
{"COMPOUND": "COc1ccc(CCNCC(=O)N(CCC(c2ccccc2)c2ccccc2)CC(N)=O)cc1", "GI50 at 72 h / µM": 9.36}
{"COMPOUND": "COc1ccc(CCN(CC(=O)N(CCC(c2ccccc2)c2ccccc2)CC(N)=O)C(=O)CNCCC(c2ccccc2)c2ccccc2)cc1", "GI50 at 72 h / µM": 1.32}
{"COMPOUND": "O=C(CN(CCC(c1ccccc1)c1ccccc1)C(=O)CNCC1CCCO1)NCCC(c1ccccc1)c1ccccc1 (stereo not given)", "GI50 at 72 h / µM": 1.06}

* * *

test: Cytotoxicity against human A549 cells after 72 hrs; format: cell-based
Examples of molecules with documented GI50 at 72 h follow.

{"MOLECULE": "COc1ccc(CCN(CC(=O)N(CCC(c2ccccc2)c2ccccc2)CC(N)=O)C(=O)CNCCC(c2ccccc2)c2ccccc2)cc1", "GI50 at 72 h": "1410 nM"}
{"MOLECULE": "O=C(CNCCC(c1ccccc1)c1ccccc1)NCCC(c1ccccc1)c1ccccc1", "GI50 at 72 h": "3460 nM"}
{"MOLECULE": "COc1ccc(CCNCC(=O)N(CCC(c2ccccc2)c2ccccc2)CC(N)=O)cc1", "GI50 at 72 h": "9360 nM"}
{"MOLECULE": "COc1ccc(CCN(CC(=O)NCCC(c2ccccc2)c2ccccc2)C(=O)CNCCC(c2ccccc2)c2ccccc2)cc1", "GI50 at 72 h": "1020 nM"}
{"MOLECULE": "O=C(CN(CCC(c1ccccc1)c1ccccc1)C(=O)CNCC1CCCO1)NCCC(c1ccccc1)c1ccccc1 (stereo not drawn)", "GI50 at 72 h": "1060 nM"}
{"MOLECULE": "NC(=O)CN(CCC(c1ccccc1)c1ccccc1)C(=O)CN(CCC(c1ccccc1)c1ccccc1)C(=O)CNCC1CCCO1 (stereo not drawn)", "GI50 at 72 h": "2570 nM"}
{"MOLECULE": "NC(=O)CN(CCC(c1ccccc1)c1ccccc1)C(=O)CNCCC(c1ccccc1)c1ccccc1", "GI50 at 72 h": "3080 nM"}
{"MOLECULE": "COc1ccc(CCNCC(=O)NCCC(c2ccccc2)c2ccccc2)cc1", "GI50 at 72 h": "3730 nM"}
